Numbers sourced from patent US5601801A.

Protocol summary: Biodistribution of ^131 I-3 in CD-1 Mice, normal and blocked with lisinopril
Type: in vivo
Assay context: mouse, stomach, iv, 1 uCi, 1.5 hours, blocked (lisinopril); read-out: Biodistribution, Stomach

Compound: O=C(NCCCC[C@H](N[C@@H](CCc1ccccc1)C(=O)O)C(=O)N1CCC[C@H]1C(=O)O)c1cccc([131I])c1 [^131 I-3, Lisinopril N^ε -radioiodobezamide]
Unit of measure: %ID/g
tissue uptake at 1.5 h: 13.3

---

Protocol summary: Biodistribution of ^131 I-3 in CD-1 Mice, normal and blocked with lisinopril
Type: in vivo
Assay context: mouse, kidney, iv, 1 uCi, 1.5 hours, normal (not blocked); read-out: Biodistribution, Kidney
Endpoint: tissue uptake at 1.5 h (%ID/g)

Compound: O=C(NCCCC[C@H](N[C@@H](CCc1ccccc1)C(=O)O)C(=O)N1CCC[C@H]1C(=O)O)c1cccc([131I])c1 [^131 I-3, Lisinopril N^ε -radioiodobezamide]
Obs value: 7.1
